Biological target: Homeodomain-interacting protein kinase 4 (Homo sapiens);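 also: reported as mean inhibition, part of the GSK PKIS dataset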
Sequence (whole entry): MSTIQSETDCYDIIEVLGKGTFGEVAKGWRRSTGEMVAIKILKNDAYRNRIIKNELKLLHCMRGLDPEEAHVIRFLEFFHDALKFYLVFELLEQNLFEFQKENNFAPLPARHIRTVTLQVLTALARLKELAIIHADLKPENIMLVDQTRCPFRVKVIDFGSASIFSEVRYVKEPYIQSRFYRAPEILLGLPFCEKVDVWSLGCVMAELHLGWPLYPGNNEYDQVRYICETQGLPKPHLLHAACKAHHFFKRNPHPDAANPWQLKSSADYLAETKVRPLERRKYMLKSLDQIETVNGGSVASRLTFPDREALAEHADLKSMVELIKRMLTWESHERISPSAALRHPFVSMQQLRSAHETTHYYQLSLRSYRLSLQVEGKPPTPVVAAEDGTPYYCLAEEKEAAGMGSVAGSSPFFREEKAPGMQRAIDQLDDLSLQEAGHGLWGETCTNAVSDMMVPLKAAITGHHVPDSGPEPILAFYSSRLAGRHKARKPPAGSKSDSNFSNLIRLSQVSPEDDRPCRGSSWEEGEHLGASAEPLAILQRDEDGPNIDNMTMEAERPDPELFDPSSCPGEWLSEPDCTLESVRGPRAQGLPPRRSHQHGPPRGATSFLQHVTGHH
Settings: at 0.1 µM
inhibition values, listed per item
Please reply with the bare figure in % and do not write the unit itself.

Below are worked cases with known answers.
- inputSmiles: "COc1ccc(-c2nn3ncccc3c2-c2ccnc(Nc3ccc4c(c3)OCCO4)n2)cc1"
  inhibition, %: 0.08
- inputSmiles: "Fc1ccc(-c2nn3ccccc3c2-c2ccncc2)cc1"
  inhibition, %: -0.72
- inputSmiles: "COc1cc(Nc2nccc(Nc3ccc4c(C)n[nH]c4c3)n2)cc(OC)c1OC"
  inhibition, %: 1.59
- inputSmiles: "CC(C)COC(=O)c1ccc2c(c1)/C(=C/Nc1ccc(S(N)(=O)=O)cc1)C(=O)N2"
  inhibition, %: -0.32
- inputSmiles: "COc1ccc2[nH]c3c4[nH]c5ccc(OC)cc5c4c4c(c3c2c1)C(=O)NC4=O"
  inhibition, %: 4.28

# query: inhibition of entry O=C(O[C@H]1CN[C@H](C#Cc2cc3ncnc(Nc4ccc(Cc5ccccc5)cc4)c3s2)C1)N1CCOCC1 0.04

# query: inhibition of entry CS(=O)(=O)CCNCc1coc(-c2ccc3ncnc(Nc4ccc(OCc5ccccc5)cc4)c3c2)c1 0.96

# query: inhibition of entry COc1cc2ncn(-c3cc(OCc4ccccc4C(F)(F)F)c(C(=O)N(C)C)s3)c2cc1OC -0.52

# query: inhibition of entry Cc1cccc2c1NC(=O)/C2=N\Nc1ccc(S(N)(=O)=O)cc1 2.16

# query: inhibition of entry CCCN(CCS(C)(=O)=O)Cc1ccc(-c2ccc3ncnc(Nc4ccc(OCc5cccc(F)c5)c(Cl)c4)c3c2)o1 3.01

# query: inhibition of entry N#Cc1c(NC(=O)CN2CCOCC2)sc2c1CCCC2 7.62

* * *

target: Tyrosine-protein kinase Blk (Homo sapiens) (UniProt P51451); conditions: at 1 µM;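 also: mean percent inhibition of BLK kinase activity, from GSK PKIS kinase inhibitor set profiling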
Sequence (P51451 2-505 limits assumed): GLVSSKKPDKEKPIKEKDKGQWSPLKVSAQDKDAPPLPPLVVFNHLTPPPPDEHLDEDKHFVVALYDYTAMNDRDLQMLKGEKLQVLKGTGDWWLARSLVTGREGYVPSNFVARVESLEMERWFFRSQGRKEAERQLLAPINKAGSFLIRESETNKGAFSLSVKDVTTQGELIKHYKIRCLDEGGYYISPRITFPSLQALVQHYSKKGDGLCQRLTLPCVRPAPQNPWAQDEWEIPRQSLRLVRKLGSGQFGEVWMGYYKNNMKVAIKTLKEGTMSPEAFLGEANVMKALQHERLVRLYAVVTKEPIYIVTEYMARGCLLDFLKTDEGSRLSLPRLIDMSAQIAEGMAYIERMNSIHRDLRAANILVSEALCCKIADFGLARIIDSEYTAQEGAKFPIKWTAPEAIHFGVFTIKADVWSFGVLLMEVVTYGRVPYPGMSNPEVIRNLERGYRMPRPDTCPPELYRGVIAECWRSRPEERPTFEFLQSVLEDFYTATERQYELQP
readoutKind: inhibition (%)
Please reply with the bare figure in % and do not write the unit itself.

Below are worked cases with known answers.
- inputSmiles: "Nc1ncc(-c2cccc(S(N)(=O)=O)c2)c2scc(-c3ccc(F)c(Cl)c3)c12"
  unitSymbol: "%"
  inhibition: 28.2
- inputSmiles: "CCn1c(-c2nonc2N)nc2c(C#CC(C)(C)O)nc(OC[C@H](N)c3ccccc3)cc21"
  unitSymbol: "%"
  inhibition: 2.85
- inputSmiles: "CNC(=O)c1cncc(/C=C/c2ccccc2Cl)c1"
  unitSymbol: "%"
  inhibition: 4.55

Now let's try a different one.
# query: inhibition of entry COc1cc(/C=N/Nc2ncnc3[nH]ncc23)ccc1O 59.7

Hello, the source for this data is ChEMBL document CHEMBL1961873, in case you need it.
